// values below are reported pKd
- SUBJECT_OF_TEST: UniProtKB P10276
- Sequence (P10276 whole entry): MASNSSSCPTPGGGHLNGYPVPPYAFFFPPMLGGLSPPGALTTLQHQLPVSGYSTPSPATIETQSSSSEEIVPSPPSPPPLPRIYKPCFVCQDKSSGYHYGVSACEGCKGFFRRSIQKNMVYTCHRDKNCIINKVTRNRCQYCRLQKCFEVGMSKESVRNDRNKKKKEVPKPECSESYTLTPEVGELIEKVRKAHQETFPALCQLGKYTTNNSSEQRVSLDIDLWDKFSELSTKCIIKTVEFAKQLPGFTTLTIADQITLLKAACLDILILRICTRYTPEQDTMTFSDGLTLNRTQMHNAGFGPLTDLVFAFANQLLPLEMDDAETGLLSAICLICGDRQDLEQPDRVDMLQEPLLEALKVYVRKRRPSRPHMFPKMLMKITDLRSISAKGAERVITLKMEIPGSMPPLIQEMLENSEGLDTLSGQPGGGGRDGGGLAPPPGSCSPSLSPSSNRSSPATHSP
- EXPERIMENT: Binding affinity fo retinoic acid receptor RAR alpha
pKd is a log-scale quantity: -log10 of the concentration expressed in molar.

{"COMPOUND": "CC1(C)CCC(C)(C)c2c1cc(C(=O)Nc1cc(F)c(C(=O)O)c(F)c1)c(O)c2Br", "SUBJECT_OF_TEST": "UniProtKB P10276", "pKd": 8.40}
{"COMPOUND": "CC1(C)CCC(C)(C)c2cc(C(=O)Nc3cc(F)c(C(=O)O)c(F)c3)c(O)cc21", "SUBJECT_OF_TEST": "UniProtKB P10276", "pKd": 8.52}

Pending compound:
Give its pKd value. Item: CC1(C)CCC(C)(C)c2c1cc(C(=O)Nc1cc(F)c(C(=O)O)c(F)c1)c(O)c2Cl [NRX195183]
8.52
